test-summary: Waters ACQUITY UPLC BEH C18, 100 × 2.1 mm, 1.7 µm, 40 °C, 0.3 to 0.4 mL/min, estimated dead time 0.63 min; A: water + 0.1% formic acid; B: methanol + 0.1% formic acid; gradient (min/%B) 0/0.5 0.1/0.5 10/80 10.1/99.5 12/99.5
test-parameters: stereoisomer not certain
measurement-type: LC retention time (min)
Enter your answer as a number in min; do not include the unit.

## Task Which LC retention time is listed for `O=C(O)C=C(CC(=O)O)C(=O)O` ?
## Result 1.61

* * *

test-summary: Waters ACQUITY UPLC BEH C18, 100 × 2.1 mm, 1.7 µm, 40 °C, 0.3 to 0.4 mL/min, estimated dead time 0.63 min; A: water + 0.1% formic acid; B: methanol + 0.1% formic acid; gradient (min/%B) 0/0.5 0.1/0.5 10/80 10.1/99.5 12/99.5
test-parameters: stereoisomer not certain
Mark no (0) for LC retention time values under 3 min, and yes (1) for everything at or above.

Examples with answers:
- compound: "O=C1CC(c2ccc(O)c(O)c2)Oc2c1c(OC1OC(CO)C(O)C(O)C1O)cc(O)c2C1OCC(O)C(O)C1O (stereo not given)"
  class-name: "yes (1)"
- compound: "CCC(C)C(NCC1(O)OCC(O)C(O)C1O)C(=O)NC(CCC(=O)O)C(=O)O (stereo not given)"
  class-name: "no (0)"
- compound: "CS(=O)CCCCCCCN (stereo not given)"
  class-name: "no (0)"

## Task I'd appreciate it if you could say whether CC(C)=CCCC(C)(OC1OC(CO)C(O)C(O)C1O)C1CCC2(C)C1C(O)CC1C3(C)CCC(O)C(C)(C)C3C(O)CC12C (stereo not given) has LC retention time at least equal to 3 min.
## Result yes (1)

## Task I'd appreciate it if you could say whether CCC1=CC2CN3CCc4c([nH]c5ccccc45)C(C(=O)OC)(C2)C13 (stereo not given) has LC retention time at least equal to 3 min.
## Result yes (1)

* * *

test-summary: Waters ACQUITY UPLC BEH C18, 100 × 2.1 mm, 1.7 µm, 40 °C, 0.3 to 0.4 mL/min, estimated dead time 0.63 min; A: water + 0.1% formic acid; B: methanol + 0.1% formic acid; gradient (min/%B) 0/0.5 0.1/0.5 10/80 10.1/99.5 12/99.5
test-parameters: stereoisomer not certain
measurement-type: LC retention time

## Task Which LC retention time is listed for `COc1cccc2c(=O)c3ccoc3n(C)c12` ?
## Result 5.59 min

## Task Which LC retention time is listed for O=C(O)C(Cc1ccc(O)cc1)NCC1(O)OC(CO)C(O)C1O (stereo not given) ?
## Result 1.82 min

## Task Which LC retention time is listed for CC(CCC1(O)OC2CC3C4CC=C5CC(O)CCC5(C)C4CCC3(C)C2C1C)COC1OC(CO)C(O)C(O)C1O (stereo not given) ?
## Result 6.58 min

## Task Which LC retention time is listed for CC1C(=O)OC2C(O)C34C5OC(=O)C3(OC3OC(=O)C(O)C34C(C(C)(C)C)C5O)C12O (stereo not given) ?
## Result 4.33 min

## Task Which LC retention time is listed for CCSSCC(NCC1(O)OCC(O)C(O)C1O)C(=O)NCCC(=O)O (stereo not given) ?
## Result 3.29 min

* * *

test-summary: Waters ACQUITY UPLC BEH C18, 100 × 2.1 mm, 1.7 µm, 40 °C, 0.3 to 0.4 mL/min, estimated dead time 0.63 min; A: water + 0.1% formic acid; B: methanol + 0.1% formic acid; gradient (min/%B) 0/0.5 0.1/0.5 10/80 10.1/99.5 12/99.5
test-parameters: stereoisomer not certain
Mark F for LC retention time values under 5 min, and T for everything at or above.

Examples with answers:
- compound: "CC(C)=CCc1c(O)ccc2c1OC(c1ccc(O)cc1)CC2=O (stereo not given)"
  class-name: "T"
- compound: "CCC=CCC=CC=CC(O)CCCCCCCC(=O)O (stereo not given)"
  class-name: "T"
- compound: "COc1cc(C=CC(=O)OC2OC(CO)C(O)C(O)C2O)cc(OC)c1O (stereo not given)"
  class-name: "F"
- compound: "O=C1c2ccc(O)cc2OCC1c1ccc(O)c(OC2OC(CO)C(O)C(O)C2O)c1 (stereo not given)"
  class-name: "F"
- compound: "COc1cc(-c2cc(=O)c3c(O)cc(OC4OC(C(=O)O)C(O)C(O)C4OC4OC(C(=O)O)C(O)C(O)C4O)cc3o2)ccc1O (stereo not given)"
  class-name: "F"
- compound: "O=C1CC(c2ccc(O)cc2)Oc2cc(O)cc(O)c21 (stereo not given)"
  class-name: "T"
- compound: "CC(C)C(N)C(=O)NC(Cc1ccccc1)C(=O)O (stereo not given)"
  class-name: "F"
- compound: "COc1c(-c2ccccc2)oc2c(OC)c(O)cc(O)c2c1=O"
  class-name: "T"
- compound: "CC(C)C(O)(CC(=O)O)C(=O)O (stereo not given)"
  class-name: "F"
- compound: "CC1=C(O)C(=O)CC(OC2CC(C)(C)CC3C4=CCC5C6(C)CCC(OC7OC(C(=O)O)C(O)C(O)C7OC7OC(C(=O)O)C(O)C(O)C7OC7OC(C)C(O)C(O)C7O)C(C)(CO)C6CCC5(C)C4(C)CCC23C)O1 (stereo not given)"
  class-name: "T"

## Task I'd appreciate it if you could say whether CC1(C)CC(O)C2(C)CCC3(C)C(=CCC4C5(C)CCC(OC6OC(C(=O)O)C(O)C(O)C6OC6OC(CO)C(O)C(O)C6OC6OC(CO)C(O)C(O)C6O)C(C)(CO)C5CCC43C)C2C1 (stereo not given) has LC retention time at least equal to 5 min.
## Result T

## Task I'd appreciate it if you could say whether `O=c1cc(-c2ccccc2)oc2ccccc12` has LC retention time at least equal to 5 min.
## Result T

## Task I'd appreciate it if you could say whether CC(C)CC(N)C(=O)NC(C(=O)O)C(C)C (stereo not given) has LC retention time at least equal to 5 min.
## Result F

## Task I'd appreciate it if you could say whether CC=C1CN(C)C2CC3(C(=O)N(OC)c4ccccc43)C3CC1C2CO3 (stereo not given) has LC retention time at least equal to 5 min.
## Result F

## Task I'd appreciate it if you could say whether CCCCCC(=O)OC1C(CO)OC(OC2(CO)OC(CO)C(OC(C)=O)C2O)C(OC(=O)CCCCC)C1OC(=O)CCCCC (stereo not given) has LC retention time at least equal to 5 min.
## Result T

## Task I'd appreciate it if you could say whether COc1ccc(CC2COC(=O)C2Cc2ccc(OC3OC(CO)C(O)C(O)C3O)c(OC)c2)cc1OC (stereo not given) has LC retention time at least equal to 5 min.
## Result T

* * *

test-summary: Waters ACQUITY UPLC BEH C18, 100 × 2.1 mm, 1.7 µm, 40 °C, 0.3 to 0.4 mL/min, estimated dead time 0.63 min; A: water + 0.1% formic acid; B: methanol + 0.1% formic acid; gradient (min/%B) 0/0.5 0.1/0.5 10/80 10.1/99.5 12/99.5
test-parameters: stereoisomer not certain
Could you mark each record 1 if its LC retention time falls strictly under 8 min, and -1 if it equals or exceeds it?

Examples with answers:
- molecule: "O=C(C=Cc1ccc(O)c(O)c1)OC1CC2(O)CC(OC2=O)C1OC(=O)C=Cc1ccc(O)c(O)c1 (stereo not drawn)"
  class-name: 1
- molecule: "COc1cc2oc(-c3ccc(O)cc3)cc(=O)c2c(O)c1C1OC(CO)C(O)C(O)C1O (stereo not drawn)"
  class-name: 1
- molecule: "CC1=C(C)C(=O)OC(C(C)C2(O)CCC3C4C5OC5C5(O)CC=CC(=O)C5(C)C4CCC32C)C1 (stereo not drawn)"
  class-name: 1
- molecule: "COc1cc(-c2oc3cc(O)cc(O)c3c(=O)c2OC2OC(CO)C(O)C(O)C2O)ccc1OC1OC(CO)C(O)C(O)C1O (stereo not drawn)"
  class-name: 1
- molecule: "O=c1c(O)c(-c2ccc(O)cc2)oc2ccccc12"
  class-name: -1
- molecule: "NCCCCNC(=O)c1ccccc1"
  class-name: 1
- molecule: "COC(=O)C1CC23CCCN4CCC5(c6ccccc6NC15C2C)C43 (stereo not drawn)"
  class-name: 1
- molecule: "CC(C)=CCc1cc(C2Oc3c(ccc(O)c3CC=C(C)C)C(=O)C2O)ccc1O (stereo not drawn)"
  class-name: -1

## Task For COC1C(O)C(OC2C(OC3C(OC4CCC5(C)C(CCC6(C)C5CC=C5C7CC(C)(C)CC(O)C7(C)CCC56C)C4(C)CO)OC(C(=O)O)C(O)C3O)OC(C(=O)O)C(O)C2O)OC(CO)C1OC(C)=O (stereo not drawn) , is the recorded LC retention time below the cut-off of 8 min?
## Result 1

## Task For `O=c1[nH]c(=O)c2[nH]cnc2[nH]1` , is the recorded LC retention time below the cut-off of 8 min?
## Result 1

## Task For O=c1c(OC2OC(COC3OCC(O)C(O)C3O)C(O)C(O)C2O)c(-c2ccc(O)c(O)c2)oc2cc(O)cc(O)c12 (stereo not drawn) , is the recorded LC retention time below the cut-off of 8 min?
## Result 1

## Task For `COc1cc2ccc(=O)oc2cc1OC` , is the recorded LC retention time below the cut-off of 8 min?
## Result 1

## Task For O=C1CC(c2ccccc2)Oc2ccccc21 (stereo not drawn) , is the recorded LC retention time below the cut-off of 8 min?
## Result -1

## Task For O=C1CC(c2ccc(OC3OC(CO)C(O)C(O)C3O)cc2)Oc2cc(O)ccc21 (stereo not drawn) , is the recorded LC retention time below the cut-off of 8 min?
## Result 1

## Task For CC1(C)CCC2(C(=O)OC3OC(CO)C(O)C(O)C3O)CCC3(C)C(=CCC4C5(C)CCC(OC6OC(C(=O)O)C(O)C(O)C6OC6OC(CO)C(O)C(O)C6O)C(C)(C)C5CCC43C)C2C1 (stereo not drawn) , is the recorded LC retention time below the cut-off of 8 min?
## Result 1

## Task For CCCCCC=CC=CC(O)CCCCCCCC(=O)O (stereo not drawn) , is the recorded LC retention time below the cut-off of 8 min?
## Result -1

## Task For `O=C(O)c1cc2c(c3c1c([N+](=O)[O-])cc1ccccc13)OCO2` , is the recorded LC retention time below the cut-off of 8 min?
## Result 1
